tested on: Human immunodeficiency virus 1; assay: Antiviral activity against VSV-G pseudotyped HIV1 infected in human SupT1 cells at 100 uM after 48 hrs by luciferase reporter gene assay relative to control; format: functional; conditions: Human immunodeficiency virus 1, SUP-T1, 48 h
Classify as follows. Reported inhibition at 100 µM greater than or equal to 70%: 1. Reported inhibition at 100 µM below: -1.

{"columns": ["molecule", "experimental.system", "assigned.category"],
 "data": [
  ["C[C@H]1/C=C/OC(=O)O[C@@]23C(=O)N[C@@H](Cc4ccccc4)[C@@H]2[C@H](C)[C@@]2(C)OC2[C@@H]3/C=C/C[C@H](C)C1=O (some centres undefined)", "Human immunodeficiency virus 1", -1],
  ["COC(=O)[C@@]1(Cc2ccc(O)c(C[C@H](O)C(C)(C)O)c2)OC(=O)C(OC)=C1c1ccc(O)cc1", "Human immunodeficiency virus 1", 1],
  ["Cc1c(O)c(O)c2c(c1C=O)[C@@H]1O[C@H](O2)c2c(C)c(O)c(O)c(O)c2C1=O", "Human immunodeficiency virus 1", 1],
  ["COC(=O)[C@]1(Cc2ccc(O)cc2)OC(=O)C(O)=C1c1ccc(O)cc1", "Human immunodeficiency virus 1", -1],
  ["Cc1c(O)c(O)c(O)c2c1COC2", "Human immunodeficiency virus 1", 1],
  ["CC1=C(C)[C@H]2[C@H](Cc3ccccc3)NC(=O)[C@]23OC(=O)/C=C/[C@H](C)[C@H](O)[C@@H](C)C/C=C/[C@H]3[C@@H]1O", "Human immunodeficiency virus 1", 1]
]}

Let us examine a further case.
# check: inhibition at 100 µM of COC(=O)c1cc(O)cc(OC)c1C(=O)c1c(O)cc(C)cc1O is greater than or equal to 70%
-1
